Experiment: Stability in human liver microsomes
Conditions: human, microsomes
ENDPOINT: remaining at 0.5 h, 1 μM (%)
One number for each entry, in %.

Q) Report remaining at 0.5 h, 1 μM for C[C@]12CC[C@H]3[C@@H](CCC4=CC(=O)CC[C@@]43C)[C@@H]1CC[C@@H]2O please.
A) 13

Data provenance is patent US9790262B2.
